B1: TPR t1 (parent)
chain: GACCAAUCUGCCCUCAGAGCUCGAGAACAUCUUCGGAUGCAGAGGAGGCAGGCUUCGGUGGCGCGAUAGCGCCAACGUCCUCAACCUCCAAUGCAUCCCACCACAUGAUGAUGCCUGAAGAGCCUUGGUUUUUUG

# Variants of: B1
# procedure details: polymerase ribozyme fitness, log enrichment relative to wild type (log ratio); higher = more active; in vitro selection for triplet polymerase activity
Form field: polymerase ribozyme fitness (log ratio) (one value per entry).
Give the figure by itself; no unit, no explanation.

C20G C62U G113C = -1.25
U54G U112A G117C = -4.03

Can you look up the measured polymerase ribozyme fitness (log ratio) of C8U G58A G110A for me?
-1.27

Can you look up the measured polymerase ribozyme fitness (log ratio) of C12A G63A C89G C114A for me?
-6.47

Can you look up the measured polymerase ribozyme fitness (log ratio) of C89U G122U for me?
-0.616

Can you look up the measured polymerase ribozyme fitness (log ratio) of A6C G42U C79U A90C for me?
-0.731

Can you look up the measured polymerase ribozyme fitness (log ratio) of A2G G51A for me?
-2.94

Can you look up the measured polymerase ribozyme fitness (log ratio) of A2U G45A C62U C115U U133A for me?
-2.99

Can you look up the measured polymerase ribozyme fitness (log ratio) of U54C C98U A121U for me?
1.37

Can you look up the measured polymerase ribozyme fitness (log ratio) of C12U C80U for me?
-0.606

Can you look up the measured polymerase ribozyme fitness (log ratio) of U55C G61A C104A for me?
-1.51

Can you look up the measured polymerase ribozyme fitness (log ratio) of U9G A95C U130A for me?
-0.961

Can you look up the measured polymerase ribozyme fitness (log ratio) of A41C G63U G77C A100U for me?
-4.24

Can you look up the measured polymerase ribozyme fitness (log ratio) of A5C C11A A50G C53A C99A C102G C104A C115U for me?
-7.15

Can you look up the measured polymerase ribozyme fitness (log ratio) of G17U G48A A50U G60A for me?
-3.1

Can you look up the measured polymerase ribozyme fitness (log ratio) of C11A C12A C62U C102A C115U U130G for me?
-8.31

Can you look up the measured polymerase ribozyme fitness (log ratio) of A26G A105G for me?
-4.04

Can you look up the measured polymerase ribozyme fitness (log ratio) of G39A C102U A118G for me?
-2.73

Can you look up the measured polymerase ribozyme fitness (log ratio) of C13U G63U for me?
-0.742
